For each entry below, report its inhibition value.
assayed.system: Serine/threonine-protein kinase 26 (Homo sapiens) (UniProt Q9P289)
Sequence (Q9P289 2-416 limits assumed): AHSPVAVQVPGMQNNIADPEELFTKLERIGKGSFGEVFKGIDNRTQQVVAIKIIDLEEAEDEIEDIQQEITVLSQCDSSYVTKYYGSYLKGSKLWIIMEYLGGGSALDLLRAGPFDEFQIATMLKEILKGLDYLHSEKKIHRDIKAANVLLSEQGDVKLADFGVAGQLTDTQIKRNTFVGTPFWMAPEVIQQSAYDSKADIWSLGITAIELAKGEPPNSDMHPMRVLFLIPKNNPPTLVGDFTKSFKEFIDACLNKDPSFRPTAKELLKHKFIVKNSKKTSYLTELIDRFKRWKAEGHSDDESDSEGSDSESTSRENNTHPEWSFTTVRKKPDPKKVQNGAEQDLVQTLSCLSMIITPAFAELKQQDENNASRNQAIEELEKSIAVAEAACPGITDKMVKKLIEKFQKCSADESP
applied.conditions: at 0.1 µM
Description: GSK_PKIS: MST4 mean inhibition at 0.1 uM [Nanosyn]
Give bare numbers, in %.

Worked cases, inhibition given:
[
  {
    "smiles.input": "CCn1cc(-c2ccnc3[nH]ccc23)c(-c2cccc(NC(=O)Nc3ccc(OCc4ccccc4)cc3)c2)n1",
    "assayed.system": "Serine/threonine-protein kinase 26 (Homo sapiens) (UniProt Q9P289)",
    "unit.spec": "%",
    "inhibition": 0.67
  },
  {
    "smiles.input": "CCn1c(-c2nonc2N)nc2ccccc21",
    "assayed.system": "Serine/threonine-protein kinase 26 (Homo sapiens) (UniProt Q9P289)",
    "unit.spec": "%",
    "inhibition": -1.3
  },
  {
    "smiles.input": "CS(=O)(=O)CCNCc1coc(-c2ccc3ncnc(Nc4ccc(OCc5ccccc5)cc4)c3c2)c1",
    "assayed.system": "Serine/threonine-protein kinase 26 (Homo sapiens) (UniProt Q9P289)",
    "unit.spec": "%",
    "inhibition": -2.22
  },
  {
    "smiles.input": "CCn1c(-c2nonc2N)nc2c(C#CC(C)(C)O)ncc(OC3CCNCC3)c21",
    "assayed.system": "Serine/threonine-protein kinase 26 (Homo sapiens) (UniProt Q9P289)",
    "unit.spec": "%",
    "inhibition": 0.64
  }
]

# next compound below
Query string: Looking for the measured inhibition of `Cc1ccc(O)cc1Nc1ccnc2cc(-c3ccccn3)ccc12` , can you help?
Result string: -2.79

###

assayed.system: Serine/threonine-protein kinase pim-1 (Homo sapiens);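 note: reported value is the mean inhibition of PIM1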
applied.conditions: at 0.1 µM
For each entry below, report its inhibition value.
Numbers only, in %.

Worked cases, inhibition given:
[
  {
    "compound": "CC(C)(CO)CNC(=O)c1ccc2c(c1)/C(=N/Nc1ccc(S(N)(=O)=O)cc1)C(=O)N2",
    "inhibition [%]": 2.44
  },
  {
    "compound": "CC1=C(C(=O)Nc2cc(Cl)c3[nH]ncc3c2)C(c2ccc(C(F)(F)F)cc2)CC(=O)N1 (configuration not stated)",
    "inhibition [%]": 0.67
  },
  {
    "compound": "COc1cc2ncn(-c3cc(OCc4ccccc4C(F)(F)F)c(C(=O)N(C)C)s3)c2cc1OC",
    "inhibition [%]": 0.36
  }
]

List inhibition for every entry below, keeping the order given.
1. Fc1ccc(-c2nn3ccccc3c2-c2ccncc2)cc1
2. CCN(CC)S(=O)(=O)c1ccc(OC)c(Nc2ncc(-c3ccccc3)o2)c1

Result string:
-0.39
1.35

List inhibition for every entry below, keeping the order given.
1. Nc1nc(-c2cccc(Cl)c2)c(-c2ccc3ncccc3n2)s1
2. CCn1c(-c2nonc2N)nc2ccccc21
3. COc1ccc(-c2cc3c(N)ncnc3o2)cc1

Result string:
1. 1.14
2. 0.21
3. -1.06

List inhibition for every entry below, keeping the order given.
1. CS(=O)(=O)CCNCc1ccc(-c2ccc3ncnc(Nc4ccc(OCc5ccccc5)c(C(F)(F)F)c4)c3c2)o1
2. c1ccc(-c2nc3n(c2-c2ccc4c(c2)OCO4)CCC3)nc1
3. NS(=O)(=O)c1ccc(Nc2ncc(-c3ccccc3)o2)cc1
4. COc1ccc2c(-c3ccnc(Nc4cccc(OC(F)(F)F)c4)n3)cnn2n1

Result string:
1: -0.57; 2: 0.37; 3: 0.17; 4: 1.24
